Target: C-X-C chemokine receptor type 6 (Homo sapiens)
Assay: potency against CXCR6 with APJ panel – cell-based, beta-arrestin, DiscoveRx, uHTS hits, dose response (AID 624129)
Details: CXCR6 beta-arrestin (DiscoveRx) antagonist cell assay, CXCR6, run 2, dose range 1, at 79 µM (top of the series)
PARAMETER MEASURED: inhibition (%)
All answers are understood in %, so give the number only.

These recorded examples may help you get a feel for the data.
CN(c1ccccc1)c1ccc(/C=C/[N+](=O)[O-])cc1; 114
CC1(C)Cc2ccccc2C(NNC(=O)c2ccccn2)=N1; 108
CC(Oc1cccc(Br)c1)C(=O)NNC(=O)c1ccccn1 (centres undefined); 105

Q: Find the measured inhibition: item O=C(Nc1ccc(F)cc1)c1nc(S(=O)(=O)Cc2ccccc2)ncc1Cl , target or system C-X-C chemokine receptor type 6 (Homo sapiens).
Result: 112

Q: Field entry: COC(=O)/C=C\C(=O)Nc1cccc([N+](=O)[O-])c1
Result: 111

Q: Can you handle O=C(NC(=S)N1CCN(c2ccc(C(F)(F)F)cc2[N+](=O)[O-])CC1)c1cccs1 next?
Result: 85.8

* * *

Target: UniProt O00574
Assay: potency against CXCR6 with APJ panel – cell-based, beta-arrestin, DiscoveRx, uHTS hits, dose response (AID 624129)
Details: CXCR6 beta-arrestin (DiscoveRx) antagonist cell assay, CXCR6, run 2, dose range 2
PARAMETER MEASURED: IC50 (µM)
Report the value in µM with no unit label.

Observe how each entry below is paired with its result.
COc1cc(/C=C/c2ccc3cccc(OC)c3n2)c(OC(C)=O)c([N+](=O)[O-])c1; 21.8
CCOC(=O)c1c(-c2ccc(C)o2)csc1NC(=S)NC(=O)N(C)C; 18
CC(C)N=C1CCCC1C(=S)SSC(=S)C1CCCC1=NC(C)C (stereo unspecified); 4.99
O=S(=O)(/C=C/C=C/S(=O)(=O)c1ccccc1)c1ccccc1; 11.4
CC(=O)Nc1ccc(Sc2ccc([N+](=O)[O-])o2)cc1; 11.3
Cn1c(O)c(C2=NNC(c3ccc(Cl)cc3)C2)c(=O)n(C)c1=O (stereo unspecified); 8.11
CS(=O)(=O)c1ccc(C(=O)OCc2nnc(-c3ccccc3)o2)cc1[N+](=O)[O-]; 2.03
Cc1cnc(C(=O)Nc2cccc3cccnc23)cn1; 12
COc1ccc(C(=O)NC(=S)Nc2ccc([N+](=O)[O-])cc2C)cc1OC; 25.1
Cc1ccc(C(=O)NNC(=S)NC(=O)c2ccccc2)cc1; 22.2

Q: Given the compound CNc1cc(Cl)c2nonc2c1[N+](=O)[O-] , what is its reported IC50?
Result: 2.83

Q: Can you check CCS(=O)(=O)c1ncc(Cl)c(C(=O)Nc2ccc(S(=O)(=O)N3CCC(C)CC3)cc2)n1 next?
Result: 9.26

Q: Same thing, different compound: O=C1C=CC2(C=C1)O[C@H](Cc1ccccc1)[C@@H](Cc1ccccc1)O2
Result: 10.3

Q: Thanks! And CC(Oc1ccc(Br)cc1)C(=O)Nc1nc(-c2ccccn2)cs1 (stereo unspecified) ?
Result: 4.93

Q: Would you mind doing COc1ccc(C[C@@H]2OC3(C=CC(=O)C=C3)O[C@H]2Cc2ccc(OC)cc2)cc1 as well?
Result: 7.14

Q: Now consider O=C1C(=C(c2ccccc2)N2CCOCC2)Cc2ccccc21 and answer again.
Result: 9.08

Q: Likewise for CCCNC(=O)c1nnsc1S(=O)c1ccc(Cl)cc1 (stereo unspecified) ?
Result: 11.7

* * *

Target: UniProtKB P51684
Test: potency against CXCR6 with APJ panel – cell-based, beta-arrestin, DiscoveRx, uHTS hits, dose response (AID 624129)
Conditions: CXCR6 beta-arrestin (DiscoveRx) antagonist cell assay, CCR6, dose range 1
PARAMETER MEASURED: IC50

COc1ccc(N2C(=O)CC(Sc3nnnn3-c3ccc(F)cc3)C2=O)cc1 (stereo unspecified); 8.24 µM
Cn1c(=O)c([N+](=O)[O-])c(Cl)c2ccccc21; 16.2 µM

Q: Recorded IC50 for Cc1ccc2c(Cl)cc(Cl)c(O)c2n1 , please?
Result: 3.37 µM

Q: Try O=c1oc2ccccc2c(Cl)c1CN1CCCCC1 next.
Result: 5.59 µM

Q: Also Cc1ccc(C(=O)CNc2ccc(F)cc2)cc1 ?
Result: 0.29 µM

Q: Ok, now O=[N+]([O-])c1c(NCCCO)cc(Sc2nc3ccccc3s2)c2nonc12
Result: 8.25 µM

Q: Same again, this time with Cc1cccnc1Nc1nc(-c2ccccn2)cs1
Result: 0.955 µM

Q: Same for CCC(=O)OCCNc1cc(Sc2nc3ccccc3s2)c2nonc2c1[N+](=O)[O-]
Result: 8.93 µM

Q: For C=C1C(=O)[C@]23C[C@H]1CCC2[C@@]1(C)C(C[C@@H]3O)[C@](C)(C(=O)OC)CC[C@@H]1OC(C)=O (stereo partly specified) then?
Result: 4.15 µM

Q: Thanks! And C=CS(=O)(=O)c1ccc(Oc2ccc(S(=O)(=O)C=C)cc2)cc1 ?
Result: 7.57 µM

Q: Now the same for S=C(NCCCN1CCOCC1)Nc1ccc(Cl)cc1
Result: 7.62 µM

Q: Request: Cc1nnc(Sc2cc(NCCCO)c([N+](=O)[O-])c3nonc23)s1
Result: 8.94 µM

Q: Now the same for C=C(CN(C)C)C(=O)c1ccc(C)cc1C
Result: 26 µM

Q: Next compound: C=C1CC(COc2ccc3c(C)c(Cl)c(=O)oc3c2)(c2ccccc2)OC1=O (stereo unspecified)
Result: 0.174 µM

Q: Subsequent entry: CCS(=O)(=O)c1ncc(Cl)c(C(=O)Nc2ccc(S(=O)(=O)N3CCCC(C)C3)cc2)n1 (stereo unspecified)
Result: 6.92 µM

Q: Also need C/C(=N\NC(=O)c1cc(-c2cccs2)nc2ccccc12)c1ccccn1 , thanks.
Result: 2.42 µM

Q: Next entry: COc1ccc(CN2C(=O)C(Cc3ccccc3)Nc3ncnc(N4CCN(c5ccccc5)CC4)c32)cc1 (stereo unspecified)
Result: 4.6 µM

Q: Also check Cc1[nH][nH]c(=O)c1C(c1c(C)[nH][nH]c1=O)c1cn(Cc2ccc(F)cc2)c2ccccc12
Result: 23 µM

Q: What would you report for CC(=O)OC1C2(CC3N4C(=O)C5(CO)SSC4(CC31O)C(=O)N5C)OC(C)C(C)(C)C2=O (stereo unspecified) ?
Result: 1.34 µM

Q: Please answer likewise for CC(C)(C)c1ccc(-n2nc(C#N)c(Cl)cc2=O)cc1
Result: 3.8 µM

Q: Next: CS(=O)(=O)c1ccc(C(=O)OCc2nnc(-c3ccccc3)o2)cc1[N+](=O)[O-]
Result: 7.32 µM

* * *

Target: C-X-C chemokine receptor type 6 (Homo sapiens) (UniProt O00574)
Sequence (O00574 whole entry, looked up): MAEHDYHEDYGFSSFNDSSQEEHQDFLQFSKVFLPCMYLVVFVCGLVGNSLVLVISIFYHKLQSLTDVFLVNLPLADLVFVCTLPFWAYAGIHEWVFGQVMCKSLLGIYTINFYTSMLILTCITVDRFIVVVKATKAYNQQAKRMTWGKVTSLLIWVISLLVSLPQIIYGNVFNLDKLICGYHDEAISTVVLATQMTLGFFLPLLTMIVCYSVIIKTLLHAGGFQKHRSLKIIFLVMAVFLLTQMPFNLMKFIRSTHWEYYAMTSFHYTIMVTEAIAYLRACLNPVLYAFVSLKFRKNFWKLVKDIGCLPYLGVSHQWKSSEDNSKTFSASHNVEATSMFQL
Experiment: potency against CXCR6 with APJ panel – cell-based, beta-arrestin, DiscoveRx, uHTS hits, dose response (AID 624129)
Settings: CXCR6 beta-arrestin (DiscoveRx) antagonist cell assay, CXCR6, dose range 1, mean IC50 across replicates
Recorded IC50 for the following molecules

COc1ccc(N2C(=O)CC(Sc3nnnn3-c3ccc(F)cc3)C2=O)cc1 (stereo not drawn); > 80 µM
CC(=O)OCCCNc1cc(Sc2ccc(C)cc2)c2nonc2c1[N+](=O)[O-]; > 80 µM
CC(=O)NC(=S)Nc1sc2c(c1C(N)=O)CCC(C)C2 (stereo not drawn); > 80 µM

Q: Given the entry COc1ccc(C(=O)N/N=C/c2cccc3cccnc23)cc1 , report its measured IC50.
Result: 13.5 µM

Q: Then CCn1c(Cl)c(C=O)s/c1=N\S(=O)(=O)c1ccccc1 ?
Result: 4.9 µM

* * *

Biological target: Apelin receptor (Homo sapiens) (UniProt P35414)
Assay: potency against CXCR6 with APJ panel – cell-based, beta-arrestin, DiscoveRx, uHTS hits, dose response (AID 624129); call rule not given here
Conditions: CXCR6 beta-arrestin (DiscoveRx) antagonist cell assay, APJ, dose range 1
Outcomes you can answer with include only these: T (active), F (inactive)

Recorded results for 6 molecules are shown here.
CCn1c(Cl)c(C=O)s/c1=N\S(=O)(=O)c1ccccc1; T
O=C1c2ccccc2C(=O)N1OS(=O)(=O)c1ccc(F)cc1; T
CCCCCCCCn1sccc1=O; T
Cc1cccc(C(=O)Nc2ccc(C(=O)/C=C/c3cccnc3)cc2)c1; T
C=C1C(=O)[C@]23C[C@H]1CCC2[C@@]1(C)C(C[C@@H]3O)[C@](C)(C(=O)OC)CC[C@@H]1OC(C)=O (some centres undefined); T
Oc1c(I)cc(Cl)c2cccnc12; T

Q: Write down the call the test reported for this molecule. Item: CC(Oc1cccc(Cl)c1)C(=O)Nc1nc(-c2ccccn2)cs1 (centres undefined)
Result: T

Q: And the next one, O=C(C#Cc1ccccc1)c1ccc([N+](=O)[O-])cc1 ?
Result: T

Q: What would you report for NNc1nc(-c2ccccc2)cc(-c2ccccc2O)n1 ?
Result: T

* * *

Target: C-X-C chemokine receptor type 6 (Homo sapiens)
Assay: potency against CXCR6 with APJ panel – cell-based, beta-arrestin, DiscoveRx, uHTS hits, dose response (AID 624129)
Details: CXCR6 beta-arrestin (DiscoveRx) antagonist cell assay, CXCR6, run 2, dose range 1
log10 IC50 values by entry
The figures below represent log10 of IC50, where IC50 is stated in µM.

A selection of reference data follows.
CCN(CC)CC(C)(C)C(=O)/C=C/c1ccc(/C=C/C(=O)C(C)(C)CN(CC)CC)cc1; 0.48
O=[N+]([O-])c1c(Nc2ccc(O)cc2)cc(Cl)c2nonc12; 0.53
CN(O)C(=S)c1ccccc1; 0.17
COc1ccc(CN2C(=O)C(Cc3ccccc3)Nc3ncnc(N4CCN(c5ccccc5)CC4)c32)cc1 (centres undefined); 0.66
C/C(=N/NC(=O)c1ccc(C(C)(C)C)cc1)c1ccccn1; 0.25
COc1cc(/C=C/c2ccc3c(Br)cc(Br)c(O)c3n2)ccc1O; 1.07

Q: Query log10 IC50 on C-X-C chemokine receptor type 6 (Homo sapiens) for C=C1C(=O)O[C@@H]2C[C@@H](C)[C@@H]3C=CC(=O)[C@@]3(C)[C@@H](OC(=O)CC(=O)O[C@H]3[C@@H]4C(=C)C(=O)O[C@@H]4C[C@@H](C)[C@@H]4C=CC(=O)[C@]43C)[C@H]12
Result: 0.61

Q: // repeat for COc1ccc(C[C@@H]2OC3(C=CC(=O)C=C3)O[C@H]2Cc2ccc(OC)cc2)cc1 and report
Result: 0.63
